# TGT: T1, C-terminally FLAG-tagged human Gas6 recombinant protein (hGas6-F) (human, UniProt Q14393 31-678, gamma-carboxylated glutamic acid residues in the Gla domain (producer cells co-express rat VKOR and human GGCX); positions not given)
# T1 construct: also called human Gas6-F; human Gas6 protein
# T1 sequence: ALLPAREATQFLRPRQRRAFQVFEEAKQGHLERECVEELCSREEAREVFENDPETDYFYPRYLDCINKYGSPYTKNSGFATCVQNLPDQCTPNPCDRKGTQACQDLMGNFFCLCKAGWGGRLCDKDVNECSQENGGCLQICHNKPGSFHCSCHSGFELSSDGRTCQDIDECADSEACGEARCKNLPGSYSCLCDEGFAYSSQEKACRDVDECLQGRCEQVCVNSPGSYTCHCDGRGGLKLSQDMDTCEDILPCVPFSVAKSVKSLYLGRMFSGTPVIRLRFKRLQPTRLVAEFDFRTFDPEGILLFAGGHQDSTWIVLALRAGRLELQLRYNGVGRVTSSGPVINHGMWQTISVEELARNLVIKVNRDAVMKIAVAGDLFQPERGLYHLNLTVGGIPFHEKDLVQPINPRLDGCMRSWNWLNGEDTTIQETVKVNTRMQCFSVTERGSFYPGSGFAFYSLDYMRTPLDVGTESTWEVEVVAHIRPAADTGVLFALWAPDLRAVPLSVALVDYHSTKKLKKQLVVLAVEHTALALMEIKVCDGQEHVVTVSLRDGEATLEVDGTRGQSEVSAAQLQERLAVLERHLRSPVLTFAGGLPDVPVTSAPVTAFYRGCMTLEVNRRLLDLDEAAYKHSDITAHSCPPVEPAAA
# ASSAY DETAILS: SPR Biacore T100, captured antibody, Gas6 analyte, first test
# koff per entry
REPORTED METRIC: koff

[[record]]
binder = "hzKM5320 LV6HV8 antibody (antibody, V domains shown, Humanized; variant human IgG4 constant region (EU S228P, L235E, R409K), human kappa; also called A-17) VH: QIQLVQSGPELKKPGASVKISCKASGYTFTNYGMNWVKQAPGQGLKWMGWINTETGEPTYSDDFKGRFVFSLDTSVTTAYLQISSLKAEDTATYFCAREDGYYGTLDYWGQGTTVTVSS VL: DIVMTQSPDSLAVSAGERVTINCKASQSVSNDVAWYQQKPGQSPKVLIYYASNRYTGVPDRFSGSGSGTDFTFTISSVQAEDVAVYFCQQDYSSPWTFGQGTKLEIK"
reported_metric = "koff"
endpoint_result = "0.000158 s⁻¹"

[[record]]
binder = "hzKM5320 LV1bHV0 antibody (antibody, V domains shown, Humanized; variant human IgG4 constant region (EU S228P, L235E, R409K), human kappa; also called A-04) VH: QVQLVQSGSELKKPGASVKVSCKASGYTFTNYGMNWVRQAPGQGLEWMGWINTETGEPTYSDDFKGRFVFSLDTSVSTAYLQISSLKAEDTAVYYCAREDGYYGTLDYWGQGTTVTVSS VL: DVVMTQSPDSLAVSLGERVTINCKASQSVSNDVAWYQQKPGQSPKLLIYYASNRYTGVPDRFSGSGSGTDFTLTISSVQAEDVAVYYCQQDYSSPWTFGQGTKLEIK"
reported_metric = "koff"
endpoint_result = "0.00115 s⁻¹"

[[record]]
binder = "hzKM5320 LV2bHV0 antibody (antibody, V domains shown, Humanized; variant human IgG4 constant region (EU S228P, L235E, R409K), human kappa; also called A-06) VH: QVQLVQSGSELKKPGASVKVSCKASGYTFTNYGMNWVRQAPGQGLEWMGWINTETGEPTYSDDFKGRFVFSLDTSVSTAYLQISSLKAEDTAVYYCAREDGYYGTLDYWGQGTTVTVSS VL: DVVMTQSPDSLAVSAGERVTINCKASQSVSNDVAWYQQKPGQSPKLLIYYASNRYTGVPDRFSGSGSGTDFTFTISSLQAEDVAVYYCQQDYSSPWTFGQGTKLEIK"
reported_metric = "koff"
endpoint_result = "0.00104 s⁻¹"


These data points were gathered from patent US20180339041A1.
